# MEASUREMENT PROTOCOL: In vitro skin S9 metabolic stability assay (mouse)
# Assay type: in vitro ADME
# MEASUREMENT CONTEXT: mouse, s9, pH 7.4
PROPERTY NAME: half-life at 2 μM

Prompt line: Return reported half-life at 2 μM; argument: CCS(=O)(=O)N1[C@@H]2CCC[C@H]1C[C@H](N(C)c1nc(COC(C)=O)c(F)c(Nc3cc(C)[nH]n3)n1)C2 [Compound 1]
Response line: 15 to 30 min

Prompt line: Return reported half-life at 2 μM; argument: CCS(=O)(=O)N1[C@@H]2CCC[C@H]1C[C@H](N(C)c1nc(COC(=O)OC3CCCCC3)c(F)c(Nc3cc(C)[nH]n3)n1)C2 [Compound 6]
Response line: < 15 min

Prompt line: Return reported half-life at 2 μM; argument: CCC(=O)OCc1nc(N(C)[C@@H]2C[C@H]3CCC[C@@H](C2)N3S(=O)(=O)CC)nc(Nc2cc(C)[nH]n2)c1F [Compound 2]
Response line: 15 to 30 min

Prompt line: Return reported half-life at 2 μM; argument: CCCCC(=O)OCc1nc(N(C)[C@@H]2C[C@H]3CCC[C@@H](C2)N3S(=O)(=O)CC)nc(Nc2cc(C)[nH]n2)c1F [Compound 4]
Response line: < 15 min

Prompt line: Return reported half-life at 2 μM; argument: CCCC(=O)OCc1nc(N(C)[C@@H]2C[C@H]3CCC[C@@H](C2)N3S(=O)(=O)CC)nc(Nc2cc(C)[nH]n2)c1F [Compound 3]
Response line: < 15 min

====

# SYSTEM TESTED: JAK1 (Homo sapiens, UniProt P23458)
# Construct: GST; purchased Life Technologies
# Sequence (P23458 whole entry): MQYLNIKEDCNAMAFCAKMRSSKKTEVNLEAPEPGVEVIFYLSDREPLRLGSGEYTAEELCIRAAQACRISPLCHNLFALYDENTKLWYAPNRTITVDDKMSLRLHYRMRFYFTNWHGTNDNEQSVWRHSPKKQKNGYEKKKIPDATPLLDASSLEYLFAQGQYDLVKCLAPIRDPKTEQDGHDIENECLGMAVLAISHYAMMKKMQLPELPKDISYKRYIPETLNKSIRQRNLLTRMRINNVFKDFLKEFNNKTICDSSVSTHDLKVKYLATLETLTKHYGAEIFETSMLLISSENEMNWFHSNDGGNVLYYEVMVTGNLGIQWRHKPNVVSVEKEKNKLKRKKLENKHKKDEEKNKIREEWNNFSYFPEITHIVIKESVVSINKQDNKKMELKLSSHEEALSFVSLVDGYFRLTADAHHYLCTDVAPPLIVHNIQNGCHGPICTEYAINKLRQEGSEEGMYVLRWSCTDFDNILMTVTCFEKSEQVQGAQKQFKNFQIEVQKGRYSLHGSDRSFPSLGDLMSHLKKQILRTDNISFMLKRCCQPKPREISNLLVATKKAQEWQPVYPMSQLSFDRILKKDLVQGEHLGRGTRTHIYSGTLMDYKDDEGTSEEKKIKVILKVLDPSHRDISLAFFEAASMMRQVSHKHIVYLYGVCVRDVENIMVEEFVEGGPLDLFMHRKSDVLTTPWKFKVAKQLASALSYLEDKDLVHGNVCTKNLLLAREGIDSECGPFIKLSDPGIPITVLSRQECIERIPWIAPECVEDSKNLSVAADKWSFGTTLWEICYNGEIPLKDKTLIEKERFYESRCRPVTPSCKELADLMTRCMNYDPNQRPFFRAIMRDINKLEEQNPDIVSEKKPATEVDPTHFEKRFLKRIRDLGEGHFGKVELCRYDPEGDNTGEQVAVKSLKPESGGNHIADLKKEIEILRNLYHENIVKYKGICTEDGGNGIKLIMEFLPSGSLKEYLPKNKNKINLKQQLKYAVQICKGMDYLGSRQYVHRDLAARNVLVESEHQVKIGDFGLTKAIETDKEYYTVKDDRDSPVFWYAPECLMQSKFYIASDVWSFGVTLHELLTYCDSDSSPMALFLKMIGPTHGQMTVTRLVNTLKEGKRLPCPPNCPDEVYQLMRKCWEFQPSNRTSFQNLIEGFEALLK
# MEASUREMENT PROTOCOL: Biochemical LanthaScreen JAK1 kinase assay
# MEASUREMENT CONTEXT: Km ATP 25 μM; pKi from pIC50 by Cheng-Prusoff; read-out: JAK 1 (pKi) (converted)
# Experimental: Assay 1: Biochemical JAK and Tyk2 Kinase Assays A panel of four LanthaScreen JAK biochemical assays (JAK1, 2, 3 and Tyk2) were carried in a common kinase reaction buffer (50 mM HEPES, pH 7.5, 0.01% Brij-35, 10 mM MgCl2, and 1 mM EGTA). Recombinant GST-tagged JAK enzymes and a GFP-tagged STAT1 peptide substrate were obtained from Life Technologies. […] The plates were allowed to incubate at ambient temperature for 1 h before being read on the EnVision reader (Perkin Elmer). […]
PROPERTY NAME: Ki

Prompt line: Return reported Ki; argument: CCS(=O)(=O)N1[C@@H]2CCC[C@H]1C[C@H](N(C)c1nc(CO)c(F)c(Nc3cc(C)[nH]n3)n1)C2
Response line: ≤ 0.1 nM

Prompt line: Return reported Ki; argument: CCS(=O)(=O)N1[C@@H]2CCC[C@H]1C[C@H](N(C)c1nc(COC(=O)OC3CCOCC3)c(F)c(Nc3cc(C)[nH]n3)n1)C2
Response line: 0.1 to 1 nM

Prompt line: Return reported Ki; argument: CCCCC(=O)OCc1nc(N(C)[C@@H]2C[C@H]3CCC[C@@H](C2)N3S(=O)(=O)CC)nc(Nc2cc(C)[nH]n2)c1F
Response line: 0.1 to 1 nM

====

# MEASUREMENT PROTOCOL: In vitro skin S9 metabolic stability assay (mouse)
# Format: in vitro ADME
# MEASUREMENT CONTEXT: mouse, s9, pH 7.4
Could you please report measured half-life at 0.2 μM for the items listed next?

Prompt line: Return reported half-life at 0.2 μM; argument: CCC(=O)OCc1nc(N(C)[C@@H]2C[C@H]3CCC[C@@H](C2)N3S(=O)(=O)CC)nc(Nc2cc(C)[nH]n2)c1F [Compound 2]
Response line: 15 to 30 min

Prompt line: Return reported half-life at 0.2 μM; argument: CCCC(=O)OCc1nc(N(C)[C@@H]2C[C@H]3CCC[C@@H](C2)N3S(=O)(=O)CC)nc(Nc2cc(C)[nH]n2)c1F [Compound 3]
Response line: < 15 min

Prompt line: Return reported half-life at 0.2 μM; argument: CCS(=O)(=O)N1[C@@H]2CCC[C@H]1C[C@H](N(C)c1nc(COC(=O)OC3CCCCC3)c(F)c(Nc3cc(C)[nH]n3)n1)C2 [Compound 6]
Response line: < 15 min

Prompt line: Return reported half-life at 0.2 μM; argument: CCS(=O)(=O)N1[C@@H]2CCC[C@H]1C[C@H](N(C)c1nc(COC(C)=O)c(F)c(Nc3cc(C)[nH]n3)n1)C2 [Compound 1]
Response line: < 15 min

Prompt line: Return reported half-life at 0.2 μM; argument: CCCCC(=O)OCc1nc(N(C)[C@@H]2C[C@H]3CCC[C@@H](C2)N3S(=O)(=O)CC)nc(Nc2cc(C)[nH]n2)c1F [Compound 4]
Response line: < 15 min
